target: Envelope glycoprotein gp160 (Human immunodeficiency virus 1)
Sequence (Q6QLK5 whole entry): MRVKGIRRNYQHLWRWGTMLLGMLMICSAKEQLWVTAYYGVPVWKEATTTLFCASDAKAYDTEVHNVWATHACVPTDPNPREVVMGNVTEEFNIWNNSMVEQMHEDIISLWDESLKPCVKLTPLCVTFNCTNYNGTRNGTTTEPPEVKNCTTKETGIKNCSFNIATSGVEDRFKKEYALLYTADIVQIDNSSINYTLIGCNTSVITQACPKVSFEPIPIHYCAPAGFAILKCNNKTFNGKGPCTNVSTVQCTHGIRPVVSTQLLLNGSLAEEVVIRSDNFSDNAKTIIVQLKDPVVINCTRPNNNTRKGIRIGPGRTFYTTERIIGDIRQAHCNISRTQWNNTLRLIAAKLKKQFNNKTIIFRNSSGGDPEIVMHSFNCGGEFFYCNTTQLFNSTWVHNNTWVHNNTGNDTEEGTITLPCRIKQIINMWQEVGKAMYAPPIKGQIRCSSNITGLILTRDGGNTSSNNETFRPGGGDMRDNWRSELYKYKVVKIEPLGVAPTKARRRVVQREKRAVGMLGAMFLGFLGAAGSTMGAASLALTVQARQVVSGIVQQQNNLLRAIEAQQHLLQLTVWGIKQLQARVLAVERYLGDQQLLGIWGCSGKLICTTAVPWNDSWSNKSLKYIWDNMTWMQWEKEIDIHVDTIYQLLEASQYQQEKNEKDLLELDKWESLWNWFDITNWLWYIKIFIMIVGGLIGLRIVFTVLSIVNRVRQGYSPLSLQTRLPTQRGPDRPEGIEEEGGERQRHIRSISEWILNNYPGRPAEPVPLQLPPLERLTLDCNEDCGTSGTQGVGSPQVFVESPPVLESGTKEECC
result-type: Ki (µM)

INSERT INTO measurements (structure, numeric_readout) VALUES
  ('Cn1cc2ccc(-c3ccc4ccn(Cc5cc(F)cc(C(=O)O)c5)c4c3)cc2n1', 6.4),
  ('COC(=O)c1cccc(Cn2ccc3cc(F)c(-c4ccc5ccn(Cc6cccc(C(=O)O)c6)c5c4)cc32)c1', 0.7),
  ('COC(=O)c1ccc(Cn2ccc3ccc(-c4ccc5ccn(Cc6cccc(C(=O)O)c6)c5c4)cc32)c(OC)c1', 0.4),
  ('Cc1cn(C(=O)OC(C)(C)C)c2cc(-c3ccc4ccn(Cc5cccc(C(=O)O)c5)c4c3)ccc12', 4.7),
  ('COc1cccc(CN2CCc3ccc(-c4ccc5ccn(Cc6cccc(C(=O)O)c6)c5c4)cc32)c1', 3.6),
  ('COc1cccc(Cn2ccc3cc(F)c(-c4ccc5ccn(Cc6cccc(C(=O)O)c6)c5c4)cc32)c1', 5),
  ('O=C(O)c1cccc(Cn2ccc3ccc(-c4ccc5ccn(Cc6cccc(OC(F)(F)F)c6)c5c4)cc32)c1', 2.3);
